The listing below reports IC50 for compounds tested on Prothrombin (Bos taurus).
Numbers only, in µM.

As a guide, the following entries are already answered.
Compound	Measurement Units	Reading
CCCCCCCCCCCCCCCCCC(=O)OCC1OC(Oc2cc3ccc(=O)oc3cc2O)C(O)C(O)C1O (stereo unspecified) [Esculin stearate]	µM	52
CCCCCCCCCCCCCC(=O)OC1C(C)OC(OCC2OC(Oc3c(-c4ccc(O)c(O)c4)oc4cc(O)cc(O)c4c3=O)C(O)C(O)C2O)C(O)C1O (stereo unspecified) [Rutin myristate]	µM	10
CCCCCCCCCCCCCCCC(=O)OC1C(C)OC(OCC2OC(Oc3c(-c4ccc(O)c(O)c4)oc4cc(O)cc(O)c4c3=O)C(O)C(O)C2O)C(O)C1O (stereo unspecified) [Rutin palmitate]	µM	3
CCCCCCCCCCCCCCCCCC(=O)OCC1OC(Oc2cc(O)cc(O)c2C(=O)CCc2ccc(O)cc2)C(O)C(O)C1O (stereo unspecified) [Phloridzin stearate]	µM	65
CCCCCCCC(=O)OC1C(C)OC(OCC2OC(Oc3c(-c4ccc(O)c(O)c4)oc4cc(O)cc(O)c4c3=O)C(O)C(O)C2O)C(O)C1O (stereo unspecified) [Rutin caprylate]	µM	25

What does the data say about its IC50? Entry: CCCCCCCCCCCC(=O)OCC1OC(Oc2cc(O)cc(O)c2C(=O)CCc2ccc(O)cc2)C(O)C(O)C1O (stereo unspecified) [Phloridzin laurate]
70

Hey, just so you know, these numbers are from BindingDB's records for doi:10.3109/14756366.2010.616860.
